# Test system: Proteus mirabilis 525
# Measurement Description: In vitro antibacterial activity, two-fold agar-plate dilution method
# Format: cell-based
# Run Conditions: HI-agar, 37° C., 20 hours
What MIC was measured for each of the following?
Answer format: numeric, µg/mL implied, no suffix.

Prompt: For CO/N=C(/C(=O)NC1C(=O)N2C(C(=O)O)=C(COC(C)=O)CSC12)c1csc(N)n1 (centres unmarked) [(9)] , what is its reported MIC?
Response: 0.78

Prompt: For CO/N=C(\C(=O)NC1C(=O)N2C(C(=O)O)=C(CSc3nncs3)CSC12)c1csc(N)n1 (centres unmarked) [(14)] , what is its reported MIC?
Response: 0.1

Prompt: For CO/N=C(/C(=O)NC1C(=O)N2C(C(=O)O)=C(CSc3nnnn3C)CSC12)c1cccc(O)c1 (centres unmarked) [(3)] , what is its reported MIC?
Response: 25

Prompt: For CO/N=C(\C(=O)NC1C(=O)N2C(C(=O)O)=C(COC(C)=O)CSC12)c1csc(NC=O)n1 (centres unmarked) [(12)] , what is its reported MIC?
Response: 0.78

Prompt: For CO/N=C(/C(=O)NC1C(=O)N2C(C(=O)O)=C(CSc3nnnn3C)CSC12)c1csc(N)n1 (centres unmarked) [(7)] , what is its reported MIC?
Response: 3.13

Source of measurements: patent US4493833A
